- Test system: CRL-7250
- PROTOCOL SUMMARY: Cytotoxic Profiling of Annotated Libraries Using Quantitative High-Throughput Screening (AID 1296008); further: on the % scale 0 is the no-effect control and ±100 the full control effect; nearly all actives have a fitted effect of over 60% in size
- CONDITION DETAILS: Five cell lines viability, CellTiter-Glo ATP luminescence, 48-72 h; active compounds read low
Results filed as inconclusive are left out.
MEASURED ATTRIBUTE: max response (%)

{"COMPOUND": "O=C1OCc2cc3cccc(O[C@@H]4O[C@H](CO)[C@@H](O)[C@H](O)[C@H]4O)c3c(O)c21", "SYSTEM UNDER TEST": "CRL-7250", "ENDPOINT VALUE": 3.34}
{"COMPOUND": "Cc1cccc(S(=O)(=O)N2CCC[C@@H]2CCN2CCC(C)CC2)c1", "SYSTEM UNDER TEST": "CRL-7250", "ENDPOINT VALUE": -2.64}
{"COMPOUND": "CC1CCC2(C(=O)O)CCC3(C)C(=CCC4C5(C)CCC(O)C(C)(CO)C5CCC43C)C2C1(C)O (stereo unspecified)", "SYSTEM UNDER TEST": "CRL-7250", "ENDPOINT VALUE": 0.977}
{"COMPOUND": "CN1C2CCC1CC(OC(=O)[C@H](CO)c1ccccc1)C2 (stereo partly specified)", "SYSTEM UNDER TEST": "CRL-7250", "ENDPOINT VALUE": 0.824}
{"COMPOUND": "CS(=O)(=O)c1ccc([C@H](CC2CCCC2)C(=O)Nc2nccs2)cc1", "SYSTEM UNDER TEST": "CRL-7250", "ENDPOINT VALUE": 1.1}
{"COMPOUND": "CC(O)/C=C/C1(O)C2(C)COC1(C)CC(O)C2 (stereo unspecified)", "SYSTEM UNDER TEST": "CRL-7250", "ENDPOINT VALUE": -12.7}
{"COMPOUND": "CC(=O)O[C@@H]1[C@@H](O)[C@H](C)O[C@@H](O[C@H]2[C@@H]3C=CO[C@@H](O[C@@H]4O[C@H](CO)[C@@H](O)[C@H](O)[C@H]4O)[C@@H]3[C@@]3(CO)O[C@@H]23)[C@@H]1OC(=O)/C=C/c1ccccc1", "SYSTEM UNDER TEST": "CRL-7250", "ENDPOINT VALUE": -1.26}
{"COMPOUND": "CC1CCC2(C=O)C(CO)=CCCC2C1(C)CC(=O)O (stereo unspecified)", "SYSTEM UNDER TEST": "CRL-7250", "ENDPOINT VALUE": 1.72}
{"COMPOUND": "CCOC(=O)CCN(C(=O)c1ccc2c(c1)nc(CNc1ccc(C(=N)N)cc1)n2C)c1ccccn1", "SYSTEM UNDER TEST": "CRL-7250", "ENDPOINT VALUE": 2.71}
{"COMPOUND": "CC(C)C(=O)OC[C@H]1O[C@H](O[C@H]2O[C@H](CO)[C@@H](O)[C@H](O)[C@H]2O)[C@H](O)[C@@H](O)[C@@H]1O", "SYSTEM UNDER TEST": "CRL-7250", "ENDPOINT VALUE": -1.64}
{"COMPOUND": "CC(=O)O[C@H]1[C@H](O[C@H]2[C@@H]3C=CO[C@@H](O[C@@H]4O[C@H](CO)[C@@H](O)[C@H](O)[C@H]4O)[C@@H]3[C@@]3(CO)O[C@@H]23)O[C@@H](C)[C@H](OC(=O)/C=C/c2ccccc2)[C@H]1OC(=O)/C=C/c1ccccc1", "SYSTEM UNDER TEST": "CRL-7250", "ENDPOINT VALUE": -1.73}
{"COMPOUND": "O=C1CCC=CC1(O)C(=O)OCc1ccccc1O[C@@H]1O[C@H](CO)[C@@H](O)[C@H](O)[C@H]1O (stereo partly specified)", "SYSTEM UNDER TEST": "CRL-7250", "ENDPOINT VALUE": -18.5}
{"COMPOUND": "N#Cc1ccc2[nH]cc(CCCCN3CCN(c4ccc5oc(C(N)=O)cc5c4)CC3)c2c1", "SYSTEM UNDER TEST": "CRL-7250", "ENDPOINT VALUE": -7.54}
{"COMPOUND": "COC(=O)[C@@]1(c2ccc(C)cc2)C[C@H]1CN1CCC(O)(c2ccccc2)CC1", "SYSTEM UNDER TEST": "CRL-7250", "ENDPOINT VALUE": 3.12}
{"COMPOUND": "O=C(NCc1cccc(O)c1)c1cc2cc(F)ccc2[nH]1", "SYSTEM UNDER TEST": "CRL-7250", "ENDPOINT VALUE": 3.57}
{"COMPOUND": "CC1(C)CC[C@]2(C(=O)O[C@@H]3O[C@H](CO)[C@@H](O)[C@H](O)[C@H]3O)CC[C@]3(C)C(=CCC4[C@@]5(C)CC[C@H](O[C@@H]6O[C@H](C(=O)O)[C@@H](O)[C@H](O[C@@H]7O[C@H](CO)[C@H](O)[C@H](O)[C@H]7O)[C@H]6O)C(C)(C)C5CC[C@]43C)C2C1 (stereo partly specified)", "SYSTEM UNDER TEST": "CRL-7250", "ENDPOINT VALUE": -0.842}
